- Tested on: Surinam grass (Brachiaria decumbens)
- measurementDescription: Test B pre/postemergence
- Format: in vivo
- conditionsUsed: Urochloa decumbens, pre-emergence, Preemergence, 500 g ai/ha; scale 0 to 100 (0 no effect, 100 complete control); read-out: Surinam Grass plant response rating
Some molecules, each annotated with its measured pest or weed control at 500 g/ha.

{"molecule": "Nc1nc(C2CC2)nc(CO)c1Br [Compound 21]", "pest or weed control at 500 g/ha": "20%"}
{"molecule": "Nc1nc(C2CC2)nc(C(=O)OCc2ccccc2)c1Br [Compound 22]", "pest or weed control at 500 g/ha": "20%"}
{"molecule": "CCOC(=O)c1nc(C2CC2)nc(NN)c1Br [Compound 42]", "pest or weed control at 500 g/ha": "20%"}

* * *

Some molecules, each annotated with its measured pest or weed control at 62 g/ha.
- Test system: cocklebur (Xanthium strumarium)
- measurementDescription: Test C pre/postemergence
- Format: in vivo
- conditionsUsed: Xanthium strumarium, post-emergence, Postemergence, 62 g ai/ha; scale 0 to 100 (0 no effect, 100 complete control); read-out: Cocklebur plant response rating

{"smilesInput": "CCOC(=O)c1nc(C2CC2)nc(N)c1Br", "testSystem": "cocklebur (Xanthium strumarium)", "pest or weed control at 62 g/ha": "90%"}
{"smilesInput": "COC(=O)c1nc(C2CC2)nc(N)c1Cl", "testSystem": "cocklebur (Xanthium strumarium)", "pest or weed control at 62 g/ha": "85%"}
{"smilesInput": "CCOC(=O)c1nc(C2CC2)nc(N)c1F", "testSystem": "cocklebur (Xanthium strumarium)", "pest or weed control at 62 g/ha": "95%"}

* * *

Some compounds, each annotated with its measured Plant response rating, Pigweed.
- System: pigweed (Amaranthus retroflexus)
- measurementDescription: Test B pre/postemergence
- Assay type: in vivo
- conditionsUsed: Postemergence, 500 g ai/ha; scale 0 to 100

{"compound": "CCOC(=O)Cc1nc(-c2ccc(Cl)cc2)nc(N)c1Br [Compound 41]", "testSystem": "pigweed (Amaranthus retroflexus)", "Plant response rating, Pigweed": 90}
{"compound": "CC(C)OC(=O)c1nc(C2CC2)nc(N)c1Br [Compound 14]", "testSystem": "pigweed (Amaranthus retroflexus)", "Plant response rating, Pigweed": 90}
{"compound": "CC(=O)NN=Cc1nc(C2CC2)nc(N)c1Br [Compound 51]", "testSystem": "pigweed (Amaranthus retroflexus)", "Plant response rating, Pigweed": 90}

* * *

- Tested on: barnyardgrass (Echinochloa crus-galli)
- measurementDescription: Test B pre/postemergence
- Assay type: in vivo
- conditionsUsed: Preemergence, 125 g ai/ha; scale 0 to 100 (0 no effect, 100 complete control)

{"molecule": "CCOC(=O)c1nc(C2CC2)nc(NCCOC)c1Br [Compound 39]", "Plant response rating, Barnyardgrass": 0}
{"molecule": "COC(=O)c1nc(C2CC2)nc(N=CN(C)C)c1Br [Compound 19]", "Plant response rating, Barnyardgrass": 40}
{"molecule": "COC(=O)c1nc(-c2ccc(I)cc2)nc(N)c1Br [Compound 128]", "Plant response rating, Barnyardgrass": 10}
{"molecule": "COC(=O)c1nc(-c2ccc(C(F)(F)F)cc2)nc(N)c1Cl [Compound 44]", "Plant response rating, Barnyardgrass": 0}
{"molecule": "Nc1nc(-c2ccc(Cl)cc2)nc(C(=O)[O-])c1Cl.[Na+] [Compound 117]", "Plant response rating, Barnyardgrass": 30}

* * *

Some compounds, each annotated with its measured Plant response rating, Pigweed.
- Tested on: redroot pigweed (Amaranthus retroflexus)
- measurementDescription: Test A pre/postemergence
- Type: in vivo
- conditionsUsed: Preemergence, 125 g ai/ha; 0 to 100 scale where 0 is no effect and 100 is complete control; approximately ten days
recordedEndpoint: Plant response rating, Pigweed

{"compound": "Nc1nc(C2CC2)nc(C(=O)OCC2COC(=O)O2)c1Cl (stereo not shown)", "testSystem": "redroot pigweed (Amaranthus retroflexus)", "obsValue": 70}
{"compound": "CCOC(=O)c1nc(-c2ccc(C)c(C)c2)nc(N)c1Cl", "testSystem": "redroot pigweed (Amaranthus retroflexus)", "obsValue": 0}
{"compound": "COC(=O)c1nc(-c2ccc(Cl)cc2)nc(N)c1Br", "testSystem": "redroot pigweed (Amaranthus retroflexus)", "obsValue": 20}
{"compound": "CCCOC(=O)c1nc(C2CC2)nc(N)c1Cl", "testSystem": "redroot pigweed (Amaranthus retroflexus)", "obsValue": 90}
